Where do these numbers come from? They come from the supplement of paper PMC8728848.

Below, each entry is listed with its recorded glycan array binding signal (z-score).
target: Gal(a1-6)Glc; assay: glycan array binding signal (z-score within array); higher = stronger binding; settings: glycan notation: IUPAC condensed, linker removed
About 410 targets per protein were measured; listed, in parts, are those with the strongest signals and a random draw of the rest.
Just the number.

LlpA1 (Pseudomonas fluorescens), Q4KHC3 (protein) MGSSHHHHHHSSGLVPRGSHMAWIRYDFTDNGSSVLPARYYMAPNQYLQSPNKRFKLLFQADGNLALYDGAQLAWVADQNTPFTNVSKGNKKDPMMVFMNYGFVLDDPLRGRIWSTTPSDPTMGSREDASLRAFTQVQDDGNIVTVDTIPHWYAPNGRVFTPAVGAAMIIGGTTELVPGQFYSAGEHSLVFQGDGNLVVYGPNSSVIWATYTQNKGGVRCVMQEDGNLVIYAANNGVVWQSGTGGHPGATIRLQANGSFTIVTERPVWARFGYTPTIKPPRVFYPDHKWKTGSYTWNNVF	0.047

Proceed to the following item.
Data point: ZG16p (Homo sapiens), O60844 (protein) ARSSSYSGEYGGGGGKRFSHSGNQLDGPITALRVRVNTYYIVGLQVRYGKVWSDYVGGRNGDLEEIFLHPGESVIQVSGKYKWYLKKLLFVTDKGRYLSFGKDSGTSFNAVPLHPNTVLRFISGRSGSLIDAIGLHWDVYPSSCSRC ; glycan array binding signal (z-score) = -0.272
